tested on: MDA-MB-468 breast; assay: NCI-60 one-dose screen, 48 h; settings: 10 µM unless noted
The panel holds about 83,000 compounds, 20% with a hit somewhere; the sample as a whole holds those more often. The source made the active and inactive calls. The calls were made as follows: active = growth percent below 10; inactive = the rest.
Hi! Could you answer with just one of these? active, inactive

Sample answers from the record:
Compound	Category
O=C1NC(=O)c2cc([N+](=O)[O-])cc3cccc1c23	inactive
O=C(Nc1ccc(Cl)c(Cl)c1)O/N=C\c1c(Cl)ccc([N+](=O)[O-])c1Cl	active
Nc1c(C(=O)c2ccccc2)sc2nc(-c3cccs3)ccc12	active

Task: Per the assay record, what outcome was assigned to c1ccc2cc(Cn3cc[n+](Cc4ccc5ccccc5c4)c3)ccc2c1 ?
Output: active

Task: Check the results log: what was the call for COC(=O)c1nc(-c2ccccc2)oc1S(=O)(=O)N1CCC(C(N)=O)CC1 ?
Output: active

Task: Would you mind telling me which call this test gave CCCCn1c(Cc2ccc(Cl)cc2)nc2cc(OC)c(OC)cc2c1=O ?
Output: inactive

Task: Give the logged outcome of this assay for the following compound: O=C(Nc1ccncc1)C(=O)c1cn(S(=O)(=O)c2ccc(F)cc2)c2ccccc12
Output: inactive

Task: # fetch the recorded call for O=S(=O)(Nc1ccc2ccccc2c1)N1CCCCC1 here
Output: inactive

Task: Please indicate how the test categorized CC(=O)Oc1ccc(C)cc1C .
Output: inactive

Task: Look up the recorded call for CCCCNCCC(O)c1cc2ccc(C(F)(F)F)cc2c2cc(C(F)(F)F)ccc12 (configuration not stated) in this test.
Output: active

Task: Check the results log: what was the call for COc1cc(/C=C2\CCC/C(=C\c3cc(CN4CCOCC4)c(O)c(OC)c3)C2=O)cc(CN2CCOCC2)c1O ?
Output: inactive
